Assay: Cell cytotoxicity assay (MTT), hT-HFFs
Format: cell-based
Conditions: human
Experimental: The effect of test compounds on cell viability was determined in hT-HFFs, HMVECs and T-REx-U2OS-US21-HA cells seeded in p96-well (12,000 cells/well). After 24 h, cells were treated with compounds at concentrations starting from 300 μM and then serially diluted in culture medium, or with DMSO alone starting from 0.6% v/v as the vehicle control. For cell viability of drug combination studies, the control with DMSO was from 0.07%.
result type: CC50 (µM)
Report as a plain number; the unit µM is understood.

// sample COC(=O)C1=C(C)NC(C)=C(C(=O)OCCCN2CCC(c3ccccc3)(c3ccccc3)CC2)[C@H]1c1cccc([N+](=O)[O-])c1 [Niguldipine, niguldipine] , its CC50 was 241

---

Assay: Cell cytotoxicity assay (MTT), HMVECs
Format: cell-based
Conditions: human, HMVECs; HMVEC, MTT, five days of treatment
Record form. Attribute: CC50 at 5 days. Fill in for each entry.
Report as a plain number; the unit µM is understood.

// sample CC1=C(C(=O)OCCN(Cc2ccccc2)c2ccccc2)C(c2cccc([N+](=O)[O-])c2)C(P2(=O)OCC(C)(C)CO2)=C(C)N1 (stereo not drawn) , its CC50 at 5 days was 295

// sample COC(=O)C1=C(C)NC(C)=C(C(=O)OC(C)(C)CN(C)CCC(c2ccccc2)c2ccccc2)C1c1cccc([N+](=O)[O-])c1 (stereo not drawn) , its CC50 at 5 days was 286

// sample CC1=C(C(=O)OC(C)C)C(c2cccc([N+](=O)[O-])c2)C(C(=O)OC2CN(C(c3ccccc3)c3ccccc3)C2)=C(N)N1 (stereo not drawn) , its CC50 at 5 days was 341

---

Test: Cell cytotoxicity assay (MTT), HMVECs
Format: cell-based
Settings: human
result type: CC50 (µM)
Report as a plain number; the unit µM is understood.

// sample `COC(=O)C1=C(C)NC(C)=C(C(=O)OCCCN2CCC(c3ccccc3)(c3ccccc3)CC2)[C@H]1c1cccc([N+](=O)[O-])c1` , its CC50 was 205

---

Assay: Cell cytotoxicity assay (MTT), hT-HFFs
Format: cell-based
Settings: human, hT-HFFs; hT-HFF, MTT, five days of treatment
Record form. Attribute: CC50 at 5 days. Fill in for each entry.
Report as a plain number; the unit µM is understood.

// sample COC(=O)C1=C(C)NC(C)=C(C(=O)OC(C)(C)CN(C)CCC(c2ccccc2)c2ccccc2)C1c1cccc([N+](=O)[O-])c1 (stereo not drawn) [Lercanidipine, lercanidipine] , its CC50 at 5 days was 127

// sample CC1=C(C(=O)OCCN(Cc2ccccc2)c2ccccc2)C(c2cccc([N+](=O)[O-])c2)C(P2(=O)OCC(C)(C)CO2)=C(C)N1 (stereo not drawn) [Efonidipine, efonidipine] , its CC50 at 5 days was 340

// sample CC1=C(C(=O)OC(C)C)C(c2cccc([N+](=O)[O-])c2)C(C(=O)OC2CN(C(c3ccccc3)c3ccccc3)C2)=C(N)N1 (stereo not drawn) [Azelnidipine, azelnidipine] , its CC50 at 5 days was 192

Reference source: paper PMC13129453
